experimental.system: UniProtKB Q07869
Sequence (Q07869 167-468): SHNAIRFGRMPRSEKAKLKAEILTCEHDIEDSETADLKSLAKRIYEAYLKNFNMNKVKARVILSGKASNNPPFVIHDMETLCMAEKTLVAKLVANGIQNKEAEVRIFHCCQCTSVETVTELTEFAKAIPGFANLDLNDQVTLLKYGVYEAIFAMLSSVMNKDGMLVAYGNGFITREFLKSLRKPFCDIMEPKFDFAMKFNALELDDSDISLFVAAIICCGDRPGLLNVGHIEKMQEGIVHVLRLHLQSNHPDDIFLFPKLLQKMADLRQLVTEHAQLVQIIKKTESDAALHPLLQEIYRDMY
test.description: PPAR/Gal4 chimera luciferase reporter transactivation assay in transiently transfected Cos-7 cells (hPPARα)
Type: cell-based
particulars: Cos-7 cells, 24 h, tested 0.001 to 10 µM; read-out: hPPARα EC50
For each of the compounds below, state its pEC50.
Numbers only, as −log10 of the molar value.

Report pEC50 for each item below.
1. COc1cc(C)c2c(c1)CCC(C)(CC/C=C(\C)CC/C=C(\C)C(=O)O)O2 (centres unmarked)
2. CCO/C(=C\CC/C(C)=C/CCC1(C)CCc2cc(OCc3ccccc3)ccc2O1)C(=O)O (centres unmarked)

A:
1: 6.00; 2: 5.82

====

For each of the compounds below, state its pEC50.
experimental.system: hPPARγ (Homo sapiens)
Sequence (P37231 238-505): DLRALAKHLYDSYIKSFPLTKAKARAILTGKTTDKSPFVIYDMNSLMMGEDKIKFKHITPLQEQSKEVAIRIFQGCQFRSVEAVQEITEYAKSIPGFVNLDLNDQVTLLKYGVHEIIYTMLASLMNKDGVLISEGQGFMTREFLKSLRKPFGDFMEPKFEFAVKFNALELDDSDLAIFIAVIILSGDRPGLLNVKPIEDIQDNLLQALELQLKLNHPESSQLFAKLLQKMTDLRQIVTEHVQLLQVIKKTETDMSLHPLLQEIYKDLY
test.description: PPAR/Gal4 chimera luciferase reporter transactivation assay in transiently transfected Cos-7 cells (hPPARγ)
Type: cell-based
particulars: Cos-7 cells, 24 h, tested 0.001 to 10 µM; read-out: hPPARγ EC50
Procedure: The cells were maintained under standard culture conditions (Dulbecco modified minimum essential Eagle medium, DMEM) supplemented with 10% fetal calf serum (FCS) at 37°C in 5% […] CO2 atmosphere. The medium was changed every 2 days. The Cos-7 cells were seeded in 60 mm discs at a density of 5.5 × 10^5 cells/disc in DMEM supplemented with 10% FCS and incubated at 37°C for 16 h before transfection. […]
Answers are plain numbers, as −log10 of the molar value.

// worked examples, pEC50 included
Q: If you can, please state the reported pEC50 value of COc1cc(C)c2c(c1)CCC(C)(CC/C=C(\C)CC/C=C(\C)C(=O)O)O2 (stereo not drawn) [Polycerasoidin, 2, polycerasoidin] .
A: 6.00

Q: If you can, please state the reported pEC50 value of COC(=O)COC(=O)/C(C)=C/CC/C(C)=C/CCC1(C)CCc2cc(OC)cc(C)c2O1 (stereo not drawn) [Compound 8] .
A: 7.92

Q: If you can, please state the reported pEC50 value of CCO/C(=C\CC/C(C)=C/CCC1(C)CCc2cc(OCc3ccccc3)ccc2O1)C(=O)O (stereo not drawn) [Compound 11] .
A: 6.52

Q: If you can, please state the reported pEC50 value of COC(=O)C(C)=CCCC(C)=CCCC1(C)CCc2cc(O)cc(C)c2O1 (stereo not drawn) [Compound 5] .
A: 6.24

Report pEC50 for each item below.
1. CCOC(=O)/C(=C/CC/C(C)=C/CCC1(C)CCc2cc(OCc3ccc(F)cc3)ccc2O1)OCC (stereo not drawn) [Compound 12]
2. CCOC(=O)/C(=C/CC/C(C)=C/CCC1(C)CCc2cc(OCc3ccccc3)ccc2O1)OCC (stereo not drawn) [Compound 10]

A:
[5.70, 5.70]

====

experimental.system: UniProt P37231
test.description: PPAR/Gal4 chimera luciferase reporter transactivation assay in transiently transfected Cos-7 cells (hPPARγ)
Format: cell-based
particulars: COS-7, read-out: hPPARγ Efficacy (%)
For each of the compounds below, state its Emax.
One number for each entry, in %.

Q: If you can, please state the reported Emax value of COC(=O)C(OC(=O)/C(C)=C/CC/C(C)=C/CCC1(C)CCc2cc(OC)cc(C)c2O1)C(=O)OC (stereo not shown) [Compound 7] .
A: 37

Q: If you can, please state the reported Emax value of COc1cc(C)c2c(c1)CCC(C)(CC/C=C(\C)CC/C=C(\C)C(=O)O)O2 (stereo not shown) [Polycerasoidin, 2, polycerasoidin] .
A: 55

Q: If you can, please state the reported Emax value of C/C(=C\CCC1(C)CCc2cc(OCC(N)=O)cc(C)c2O1)CC/C=C(\C)C(=O)OCc1ccccc1 (stereo not shown) [Compound 4a] .
A: 0

Now consider the entry below.
Q: If you can, please state the reported Emax value of CCCOC(=O)/C(C)=C/CC/C(C)=C/CCC1(C)CCc2cc(O)cc(C)c2O1 (stereo not shown) [Compound 3] .
A: 86
